- method: qHTS RealTime-Glo MT Cell Viability Assay in HEK293 cells - 40 hour (AID 1224874); note: % is set by controls: 0 for no effect and ±100 for the full control effect; nearly all actives have a fitted effect of over 50% in size
- measurement parameters: RealTime-Glo luminescence; active compounds read low
Inconclusive results are not listed.
property: max response (%)
Numeric only. Scale: %

# count of solved cases: 8
compound	property	test result
OC(CCN1CCCC1)(c1ccccc1)C1CCCCC1 (stereo not given)	max response	-3.9
CCC(C)COC(C)=O (stereo not given)	max response	12
Cc1cccc(N(C)C(=S)Oc2ccc3c(c2)CCC3)c1	max response	-16.2
Cc1cc(C)c(N)cc1C	max response	1.12
O=C(O)CCc1nc(-c2ccccc2)c(-c2ccccc2)o1	max response	0.935
CCCCCCCC/C=C\CCCCCCCCO	max response	15
C=C1C[C@@]23CC[C@H]4[C@@](C)(CCC[C@@]4(C)C(=O)O[C@@H]4O[C@H](CO)[C@@H](O)[C@H](O)[C@H]4O)[C@@H]2CC[C@]1(O[C@@H]1O[C@H](CO)[C@@H](O)[C@H](O[C@@H]2O[C@H](CO)[C@@H](O)[C@H](O)[C@H]2O)[C@H]1O[C@@H]1O[C@H](CO)[C@@H](O)[C@H](O)[C@H]1O)C3	max response	3.82
C=C1CCC2CC1C2(C)C (stereo not given)	max response	0.0757

Looking for the measured max response of `CCCCN(CCN(CCCC)C(=O)N1CCOCC1)C(=O)N1CCOCC1` , can you help? -14

---

- method: qHTS assay to identify small molecule agonists of the peroxisome proliferator-activated receptor delta (PPARd) signaling pathway - cell viability counter screen (AID 743211); note: nearly all actives have a fitted effect of over 55% in size; note: potency is the fitted concentration of half-maximal effect
- measurement parameters: PPARd-bla HEK293H viability, CellTiter-Glo luminescence, 17 h; series mostly up to 62.6 µM
Results filed as inconclusive are left out. Activity calls are given as the source filed them. Calls come from the whole dose curve; as a rule, active = well fitted cell-killing curve with a large enough effect in the repeat runs; inconclusive = weak or mixed curves; inactive = no such curve, though single readings can be large or run the other way.
property: Potency

# count of solved cases: 4
compound	Potency
CCC(=O)OC	inactive
O=C1c2ccccc2C(=O)C1c1ccc(Br)cc1	inactive
CO/N=C(/C(=O)N[C@@H]1C(=O)N2C(C(=O)O)=C(COC(N)=O)CS[C@H]12)c1ccco1	inactive
O=C1CCCCCCCCCCOCCCCO1	inactive

Looking for the measured Potency of `COC(=O)CS` , can you help? inactive

Field entry: `COc1cc(C(=O)NCCCCCC(=O)O)cc(OC)c1OC` inactive

Field entry: CCC(C)COC(C)=O (configuration not stated) inactive

Field entry: CCC1NC(=O)c2cc(S(N)(=O)=O)c(Cl)cc2N1 (configuration not stated) inactive

Field entry: CC1CC(C)C(=O)C1=O (configuration not stated) inactive

Field entry: `c1ccc(C[n+]2cccc3ccccc32)cc1` inactive

Field entry: CC(C)C(O)(c1ccc(OC(F)(F)F)cc1)c1cncnc1 (configuration not stated) inactive

Field entry: `Oc1ccc(Cl)c2cccnc12` 0.596 µM (active)

Field entry: `CCCCCCC(C)(C)C(=O)O` inactive

Field entry: `N#CCc1ccc(Cl)cc1Cl` inactive

Field entry: CC(CN(C)C)C(C)(O)Cc1ccc(Cl)cc1 (configuration not stated) inactive

Field entry: `O[C@@H]1CO[C@H]2[C@@H]1OC[C@@H]2O` inactive

Field entry: `C1COC1` inactive

Field entry: COc1ccccc1N1CCN(CC(O)COc2cccc3ccccc23)CC1 (configuration not stated) 26.6 µM (active)

Field entry: `O=Cc1c2ccccc2c(Cl)c2ccccc12` inactive

Field entry: `Cc1cccc(N(C)C(=S)Oc2ccc3c(c2)CCC3)c1` inactive

Field entry: `CCCC(C(=O)OCCN(CC)CC)(c1ccccc1)c1ccccc1` 29.8 µM (active)

Field entry: `O=C(O)CCc1nc(-c2ccccc2)c(-c2ccccc2)o1` inactive

Field entry: `CC(=O)[C@H]1[C@H](C#N)C[C@H]2[C@@H]3CC=C4C[C@@H](O)CC[C@]4(C)[C@H]3CC[C@@]21C` inactive
